procedure_summary: chemical genetic growth profiling, strain panel (AID 1159580);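 further: tested at 20 µM; growth read once vehicle control cultures reached saturation at 30 °C; 1 = growth at the plate median or of vehicle wells; lower values mean less growth of the strain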
details: S. cerevisiae deletion strains, growth OD, locus YGR135W, strain pre9, active compounds read low
The campaign covered roughly 5,500 compounds. About 2,000 (36%) were called active. Inconclusive results (about 18%) are left out. The list shows a part of the results.
reported_endpoint: normalized growth
Respond with the number and no other words.

Below are worked cases with known answers.
CN(C)c1ccc(O)c2c1C[C@H]1C[C@H]3[C@H](N(C)C)C(=O)C(C(N)=O)=C(O)[C@@]3(O)C(=O)C1=C2O = 0.974
COC(=O)c1c(C)c2c(c(C)c1O)OC(=O)c1c(C)c(Cl)c(O)c(Cl)c1O2 = 0.964
COC(=O)c1c(OC)cc2c(c1C)Oc1c(Cl)c(OC(C)=O)c(Cl)c(C)c1C(=O)O2 = 1.01
COC(=O)c1c(OC)cc2c(c1C)Oc1c(Cl)c(O)c(Cl)c(C)c1C(=O)O2 = 0.917
CN(C)[C@@H]1C(=O)C(C(N)=O)=C(O)[C@@]2(O)C(=O)C3=C(O)c4c(O)ccc(Cl)c4[C@@H](O)[C@H]3C[C@@H]12 = 0.974
C=C1c2c(Cl)ccc(O)c2C(O)=C2C(=O)[C@]3(O)C(O)=C(C(N)=O)C(=O)[C@@H](N(C)C)[C@@H]3[C@@H](O)[C@H]12 = 0.94

Ask | Quick check: normalized growth of "CN(C)[C@@H]1C(=O)C(C(N)=O)=C(O)[C@@]2(O)C(=O)C3=C(O)c4c(O)cccc4[C@@](C)(O)[C@H]3[C@H](O)[C@@H]12" ?
Reply | 0.987

The origin of these recorded values is PubChem BioAssay AID1159580.
